Entries annotated with measured Chip Fluorescence (mean)
System: GST-tagged Cn
measurement.notes: PEPperPRINT peptide microarray binding assay with GST-tagged Cn
test.settings: GST-tagged Cn, mean over the duplicate spots (Location on chip)

{"columns": ["item.sequence", "Chip Fluorescence (mean)"],
 "data": [
  ["TFWTNPQYRIKLEEVD [SeqRBMlowT_627]", -1.639],
  ["HVSSSPDVTLKPPQHR [SeqRBMlowT_2147]", 0.4725],
  ["ASSANPEITVTPAELP [SeqRBMlowT_4424]", 0.4111],
  ["TFWTNPQYVITLPEED [SeqRBMlowT_4660]", 0.3942],
  ["TFWTNPQFVVSLPEED [SeqRBMlowT_8537]", -0.2871],
  ["TFWTNPQFRIKLEEPD [SeqRBMlowT_8]", -0.1106],
  ["TFWTNPQYRLKLEEPD [SeqRBMlowT_264]", 0.9748],
  ["NNLAINDVTAGDRGCY [SeqRBM_1373]", 1.818],
  ["GNDDCPEVVVHPPEED [SeqRBMlowT_7697]", 0.9366],
  ["VEALSSRYGMATNLTG [Seqshuffled_4257]", 0.2313],
  ["RNPESPVLELEGHSSP [SeqRBMlowT_6390]", 1.113],
  ["EPYVAFFYQFSHDPKS [Seqshuffled_9939]", -0.878],
  ["LRDEVPEVRLNIISDL [SeqRBM_180]", -0.2367]
]}

----------
Reported values of Chip Fluorescence (max) for individual entries
System: GST-tagged Cn
measurement.notes: PEPperPRINT peptide microarray binding assay with GST-tagged Cn
test.settings: GST-tagged Cn, max over the chip spots listed under Location on chip
quantity.kind: Chip Fluorescence (max)

{"columns": ["item.sequence", "target.under.test", "experimental.result"],
 "data": [
  ["PSMAAPAINIDFAPTN [SeqRBMlowT_2463]", "GST-tagged Cn", 0.9672],
  ["AFLATPSIIIHPPEGP [SeqRBM_2675]", "GST-tagged Cn", 0.739],
  ["VQLKIPQLRVSSVSKP [SeqLCORL_2_Sus_scrofa]", "GST-tagged Cn", 0.981],
  ["VPDIGHMALHHDQIQP [Seqrandom_9983]", "GST-tagged Cn", 0.5967],
  ["RQPGTAPANLVGHKKQ [SeqRBM_2906]", "GST-tagged Cn", 0.7504],
  ["SRPLDEEGAMAPTLAN [SeqRIPOR2_Propithecus_coquereli]", "GST-tagged Cn", 0.9511],
  ["KEGPISSTVVMEALSI [SeqRBM_843]", "GST-tagged Cn", 0.8382],
  ["TGWTNPQFKLRLENDP [SeqRBM_4269]", "GST-tagged Cn", 0.7861],
  ["RFRTELSFGFTGFGTD [Seqshuffled_9528]", "GST-tagged Cn", 0.42],
  ["KKDVPPKILIEPPREF [SeqRBM_6642]", "GST-tagged Cn", 0.9085],
  ["RAYINPHMFFKFDGHK [SeqRBM_1639]", "GST-tagged Cn", 0.9031]
]}

----------
Tested on: GST-tagged Cn
measurement.notes: PEPperPRINT peptide microarray binding assay with GST-tagged Cn
test.settings: max over the chip locations listed for the peptide (two spots)
Description: We then estimated in-silico the binding strength of the various peptides to Cn by template-based docking followed by flexible backbone refinement using Modeller and PepCrawler (Figs 4 and S4). […] Fig 4 Medium-throughput filtering by structural modeling and microarray screening. […] (f) Scatter plot of the sequence likelihood (normalized by length, higher is better) against fluorescence level (higher is better, see Methods for details of the data analysis). […]
Reported Chip Fluorescence (max) by item:

{"columns": ["item.sequence", "Chip Fluorescence (max)"],
 "data": [
  ["PSALIPSLSMDPSMSE [SeqRBM_6067]", 4.106],
  ["NDHNTNDWSFELGQTV [Seqshuffled_9000]", 3.477],
  ["VAQAFNVDGNCTQYWN [Seqrandom_9942]", 6.979],
  ["WAGCDTWVFSIWRWIA [Seqrandom_10000]", 3.486],
  ["TFWTNPQYRITLEELD [SeqRBMlowT_2291]", 5.53],
  ["LDEAIPEIVISPPETP [SeqRBMlowT_4410]", 9.285],
  ["TFWTNPQFRLKLVDVD [SeqRBMlowT_5534]", 3.886],
  ["KERDVNYYIIHPVGSA [Seqshuffled_9799]", 3.906],
  ["DRMAQDSMGWCRECLM [Seqrandom_9951]", 3.639],
  ["SFWTNPQFKITLEEPD [SeqRBMlowT_6820]", 5.89],
  ["CDHMGLDIVIFVTELC [SeqRBM_1060]", 8.388],
  ["TFWTNPQFRLKLEEVD [SeqRBMlowT_5628]", 7.691],
  ["GPQDIPEVVVSPPEDD [SeqSLC4A7_Austrofundulus_limnaeus]", 6.762],
  ["NIEKMPELQACGHTSF [SeqRBM_2022]", 4.705],
  ["QHMSVPKIQVTPTEIE [SeqRBM_9954]", 4.025],
  ["PGLYDNALGIEQFTLS [SeqRBMlowT_2874]", 13.8972],
  ["TFWMNPQYMIKLEEED [SeqCAPN11_Monodelphis_domestica]", 4.262],
  ["ATPGTFPRGDGAHKKQ [SeqRBMlowT_5886]", 4.111],
  ["SDSANPEITITPAELP [SeqRBMlowT_1995]", 3.663],
  ["GSDDCPNVIVHIPHED [SeqRBM_9050]", 5.16],
  ["LTWTSLRYSVNDDKNT [Seqshuffled_9363]", 15.2815],
  ["ADEAIPEITITSAELP [SeqRBMlowT_2514]", 17.6628],
  ["KRMEPIAIIITDTEIS [SeqAKAP79_Pan_troglodytes]", 24.574],
  ["QSQSNPEITVTPPETE [SeqRIPOR2_Austrofundulus_limnaeus]", 10.3742],
  ["NDHALPEITVTPAELP [SeqRBM_7856]", 4.823]
]}

----------
System: GST-tagged Cn
measurement.notes: PEPperPRINT peptide microarray binding assay with GST-tagged Cn
test.settings: GST-tagged Cn, mean over the chip locations
Listed below: Chip Fluorescence (mean) values for each entry.
quantity.kind: Chip Fluorescence (mean)

{"columns": ["item.sequence", "quantity.kind", "experimental.result"],
 "data": [
  ["HSKLIPKLSFQSPVHH [SeqRBMlowT_814]", "Chip Fluorescence (mean)", -1.44],
  ["LNLEIPEVRLNIISAL [SeqRBMlowT_8463]", "Chip Fluorescence (mean)", -0.136],
  ["ADEANPQITITPAELP [SeqRBMlowT_1252]", "Chip Fluorescence (mean)", -1.133],
  ["HVSSSPDIALTPEQHD [SeqRBM_7666]", "Chip Fluorescence (mean)", -0.9315],
  ["PSSCTPHLYARVHKGQ [SeqRBM_1451]", "Chip Fluorescence (mean)", -1.296],
  ["FAKHWPKLSDVSPVAH [SeqRBM_8299]", "Chip Fluorescence (mean)", -1.095],
  ["RNPGSPVLELEGHSAS [SeqRBMlowT_6392]", "Chip Fluorescence (mean)", -0.4043],
  ["TFWTNPQYRIKLEEPD [SeqRBMlowT_34]", "Chip Fluorescence (mean)", -0.5691],
  ["TFWTNPQYRITVTDPD [SeqRBMlowT_65]", "Chip Fluorescence (mean)", -1.026],
  ["TFHINPQLHLIVSDAD [SeqCAPN11_Daphnia_magna]", "Chip Fluorescence (mean)", -0.9234],
  ["GVPETPSRPVDPTAPS [SeqRBM_5086]", "Chip Fluorescence (mean)", -1.3551],
  ["HVSSSPDIVITPTQHR [SeqRBMlowT_1399]", "Chip Fluorescence (mean)", -0.4706],
  ["RNYINPQAQFTYDSGA [SeqRBM_6031]", "Chip Fluorescence (mean)", -0.9244]
]}

----------
Tested on: GST-tagged Cn
measurement.notes: PEPperPRINT peptide microarray binding assay with GST-tagged Cn
test.settings: GST-tagged Cn, max over the chip locations

{"columns": ["item.sequence", "Chip Fluorescence (max)"],
 "data": [
  ["STSSLPTFSFSSPASS [SeqRBMlowT_1605]", 0.1343],
  ["VHQCTPEVSVSVCFTC [SeqRBM_8420]", 0.0911],
  ["RNPGQALLTLRGHKAQ [SeqRBMlowT_5824]", -0.7814],
  ["QGYKNPSAQFEPIGTK [SeqRBM_6874]", -0.3081],
  ["PPPGTPTRIGQHMAPS [SeqRBM_7926]", -0.5504],
  ["TFWTNPQFRVTVTEPD [SeqRBMlowT_4663]", 0.1471],
  ["ESFGNELIPFNASKSY [Seqshuffled_9947]", -0.1304],
  ["QSRSCSHPNRSPERVT [SeqRBM_5791]", -0.7515],
  ["STSSLPTFSFSSPLPT [SeqRBMlowT_898]", -0.2197],
  ["HISSSPDITATPTQHR [SeqRIPOR2_Calypte_anna]", -0.228],
  ["TFWSNPQFKITLEDPD [SeqRBMlowT_3183]", 0.1109],
  ["HVSSSPDITLTPTQHR [SeqRBMlowT_782]", -0.2367],
  ["TFWTNPQYRIKLEEPD [SeqRBMlowT_34]", 0.1832]
]}
